Below is a list of entries, each paired with its recorded pIC50 value.
Molecular target: HLA-A*02:03
Assay: IEDB peptide-MHC binding, purified MHC/competitive/radioactivity; bounds were set here for any values at or beyond the usual limits of such assays
Details: source organism: Vaccinia virus WR
pIC50: −log10 of the molar value.

{"columns": ["BIOPOLYMER SEQUENCE", "pIC50"],
 "data": [
  ["SALMTLDDLA", 5.63],
  ["NIKISLNEIL", 5.86],
  ["SAEVERLMEL", 5.60],
  ["STISWMMKL", 7.64],
  ["IALALEQYGI", 5.31],
  ["DVERLQMAGV", 6.98],
  ["ETMYLTMKA", 6.03],
  ["RVLYDEFVTI", 6.75],
  ["FLRPVLKAM", 8.01],
  ["FLTGTFVTA", 9.15],
  ["MIHKTYIDV", 7.82],
  ["CALVSDCAST", 6.84],
  ["ITRLEVIGLT", 6.66],
  ["FLFWFLKSGA", 9.24],
  ["LVQYRILPM", 5.93],
  ["LISLINSLV", 9.32],
  ["RVNDLNRMPT", 5.84],
  ["NQGNILMDSI", 5.39],
  ["VQLPKRGVRV", 5.66],
  ["FVLALYSPPL", 7.42],
  ["FTFGDTALYV", 7.32],
  ["MMQNDYGGM", 5.56],
  ["NASKTINALV", 6.56],
  ["SLVITYCLVT", 6.25],
  ["RIYCSLFKNV", 7.52],
  ["DMLLNVQTLI", 6.79],
  ["ETIQKDINIT", 8.00],
  ["NTTTFITVLT", 6.22],
  ["SVMNFIPII", 8.20],
  ["TAGNKVDVDI", 5.46],
  ["NVISKIYTLI", 7.48],
  ["GMQFDKVYL", 6.56],
  ["HLMSDNPKA", 6.55],
  ["ILDNAAKYV", 6.58],
  ["TLNEYKQLYT", 6.11],
  ["YTVEFDRDKV", 6.81],
  ["LQISRVNDL", 7.96],
  ["ALAEHISDSI", 9.47],
  ["FTDCRTIDA", 5.57],
  ["LTSVDIETAI", 5.67],
  ["FLLPLTSLVI", 8.29],
  ["CLKNEGVSGL", 7.60],
  ["YVHEGVSYEV", 7.15],
  ["YLYTEYFLFL", 9.25],
  ["HIKTIAVSV", 8.02],
  ["YLPEVISTIA", 9.02],
  ["FMYTKHSML", 9.41],
  ["AAAKTPVIVV", 5.82],
  ["TAYIGTSNWT", 5.98],
  ["SMYTRLRQDT", 5.94],
  ["VIPDELIDV", 7.36],
  ["AAKTPVIVV", 5.79],
  ["VQEFIFSAL", 6.33],
  ["FISPASISSV", 9.96],
  ["DMLKLFTHDI", 7.80],
  ["DQLVFNSISA", 6.54],
  ["ELSRLRYNL", 6.60],
  ["YLSKEDRII", 6.36],
  ["IITILQDIV", 6.18],
  ["AVIIMAINV", 5.56],
  ["DVDMDFDLNI", 5.82],
  ["EIVSHLRAST", 5.55],
  ["PTILATLNTL", 6.89],
  ["IVSLCPTKKL", 7.54],
  ["KTANNYETI", 7.42],
  ["LALTDVEKRI", 6.39],
  ["ILFQNNDINA", 6.39],
  ["LLNMRDLIVT", 6.25],
  ["WLGAAITLVV", 7.11],
  ["KINPLLDEPL", 6.52],
  ["PLSINVSGV", 7.35],
  ["WLKDSAIMV", 7.55],
  ["LIYDDNIDSI", 7.59],
  ["IMAFILGIII", 5.50],
  ["PASISSVLT", 5.87],
  ["LLNETAKVI", 7.15],
  ["QIFNIISYI", 7.82],
  ["VISVIFYFI", 6.14],
  ["SIDHCSSFIV", 6.11],
  ["KLYIALCKVT", 6.20],
  ["WIKDIMTST", 7.92],
  ["SLFIESSICL", 6.53],
  ["YIALCKVTV", 7.62],
  ["SLALKNSQA", 6.34],
  ["IVVPVIDRL", 6.65],
  ["NVIEDITFL", 6.52],
  ["IAVITETIPI", 7.49]
]}
